Molecular target: human TAS1R2-WT/TAS1R3-P780A (Homo sapiens, UniProt Q7RTX0+Q8TE23, P780A)
Construct: expressed in transfected cells; host or cells: HEK293T stably expressing Gα16gust44
Sequence (Q8TE23 20-839): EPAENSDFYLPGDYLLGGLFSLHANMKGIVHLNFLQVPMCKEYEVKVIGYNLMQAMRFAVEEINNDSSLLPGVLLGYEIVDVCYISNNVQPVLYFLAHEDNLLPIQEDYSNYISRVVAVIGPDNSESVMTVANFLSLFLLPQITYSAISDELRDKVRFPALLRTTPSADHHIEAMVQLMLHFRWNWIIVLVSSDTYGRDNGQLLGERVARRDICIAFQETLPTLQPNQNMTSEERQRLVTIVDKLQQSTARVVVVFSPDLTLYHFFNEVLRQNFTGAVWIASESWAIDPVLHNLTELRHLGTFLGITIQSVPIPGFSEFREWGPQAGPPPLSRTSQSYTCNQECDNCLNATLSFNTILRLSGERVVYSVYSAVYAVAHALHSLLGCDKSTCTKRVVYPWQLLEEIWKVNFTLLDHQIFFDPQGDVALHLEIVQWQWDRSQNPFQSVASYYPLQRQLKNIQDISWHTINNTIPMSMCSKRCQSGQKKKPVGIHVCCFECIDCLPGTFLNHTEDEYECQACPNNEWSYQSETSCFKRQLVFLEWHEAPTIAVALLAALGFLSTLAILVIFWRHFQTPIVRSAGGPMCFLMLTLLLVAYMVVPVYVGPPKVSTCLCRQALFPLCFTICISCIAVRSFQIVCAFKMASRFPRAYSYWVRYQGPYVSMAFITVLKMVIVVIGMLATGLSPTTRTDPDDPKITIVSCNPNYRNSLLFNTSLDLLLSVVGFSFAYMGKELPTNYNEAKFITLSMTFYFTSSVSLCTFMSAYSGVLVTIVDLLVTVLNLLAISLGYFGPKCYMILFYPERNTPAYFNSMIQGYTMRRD
Sequence (Q7RTX0 21-852 P780A): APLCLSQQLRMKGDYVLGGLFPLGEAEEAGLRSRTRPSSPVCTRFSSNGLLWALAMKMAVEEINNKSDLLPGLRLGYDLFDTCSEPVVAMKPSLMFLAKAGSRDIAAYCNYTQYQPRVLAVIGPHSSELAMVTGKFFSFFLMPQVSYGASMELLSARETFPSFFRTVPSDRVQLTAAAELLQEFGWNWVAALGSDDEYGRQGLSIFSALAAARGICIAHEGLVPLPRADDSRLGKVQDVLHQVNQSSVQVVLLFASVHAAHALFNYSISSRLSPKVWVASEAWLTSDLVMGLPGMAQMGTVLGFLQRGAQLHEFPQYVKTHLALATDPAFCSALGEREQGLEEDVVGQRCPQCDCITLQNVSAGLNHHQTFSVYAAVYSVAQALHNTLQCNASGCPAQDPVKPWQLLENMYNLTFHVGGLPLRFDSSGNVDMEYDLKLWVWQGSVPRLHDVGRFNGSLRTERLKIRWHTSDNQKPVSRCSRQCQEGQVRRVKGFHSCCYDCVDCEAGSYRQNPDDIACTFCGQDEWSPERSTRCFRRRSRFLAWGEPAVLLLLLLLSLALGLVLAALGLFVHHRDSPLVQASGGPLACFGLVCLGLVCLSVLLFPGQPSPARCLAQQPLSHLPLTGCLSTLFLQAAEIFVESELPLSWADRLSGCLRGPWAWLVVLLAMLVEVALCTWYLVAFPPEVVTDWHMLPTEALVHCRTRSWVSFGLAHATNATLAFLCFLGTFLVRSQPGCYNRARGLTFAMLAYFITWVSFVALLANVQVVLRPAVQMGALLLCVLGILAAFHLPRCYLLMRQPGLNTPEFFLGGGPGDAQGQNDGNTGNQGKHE
Test: Calcium mobilisation assay, TAS1R2-WT with TAS1R3 variant P780A
Format: cell-based
Conditions: maximal signal amplitude
recorded-metric: Max ΔF/F0

Example entries and their recorded answers appear below.
molecule: COC(=O)[C@H](Cc1ccccc1)NC(=O)[C@H](CC(=O)O)NCCC(C)(C)C
numeric-result: 0.63
//
molecule: OC[C@H]1O[C@H](O[C@]2(CCl)O[C@H](CCl)[C@@H](O)[C@@H]2O)[C@H](O)[C@@H](O)[C@H]1Cl
numeric-result: 0.76
//
molecule: C[C@H](CC[C@@H](O[C@@H]1O[C@H](CO[C@@H]2O[C@H](CO)[C@@H](O)[C@H](O)[C@H]2O)[C@@H](O)[C@H](O)[C@H]1O[C@@H]1O[C@H](CO)[C@@H](O)[C@H](O)[C@H]1O)C(C)(C)O)[C@H]1CC[C@@]2(C)[C@@H]3CC=C4[C@@H](CC[C@H](O[C@@H]5O[C@H](CO[C@@H]6O[C@H](CO)[C@@H](O)[C@H](O)[C@H]6O)[C@@H](O)[C@H](O)[C@H]5O)C4(C)C)[C@]3(C)[C@H](O)C[C@]12C [Mogroside V, mogroside V]
numeric-result: 1.13

I: C=C(C)[C@@H]1CC=C(/C=N/O)CC1
II: CC1=CC(=O)NS(=O)(=O)O1
[Q] Input pair: I , II . Output: entry with lower Max ΔF/F0. Give the chosen item's label as your response.
[A] II
